Target: T1, human tissue factor pathway inhibitor (TFPI) (human, UniProt P10646 29-304, limits assumed)
T1 construct: bought; also called hTFPI; human TFPI
T1 sequence (looked up): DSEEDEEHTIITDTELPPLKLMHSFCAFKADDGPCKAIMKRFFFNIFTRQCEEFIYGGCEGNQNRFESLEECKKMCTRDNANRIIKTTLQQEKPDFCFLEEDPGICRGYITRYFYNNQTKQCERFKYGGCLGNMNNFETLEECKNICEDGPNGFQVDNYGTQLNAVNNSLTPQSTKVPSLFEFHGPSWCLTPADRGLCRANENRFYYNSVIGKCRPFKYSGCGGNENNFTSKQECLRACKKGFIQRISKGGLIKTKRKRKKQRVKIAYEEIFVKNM
Assay: SPR, TFPI immobilized
readout.name: kon (M⁻¹ s⁻¹)
Give bare numbers, in M⁻¹ s⁻¹.

Consider the worked cases shown below.
| binder | observed.value |
| --- | --- |
| B41.2 (4B7 HC N32D+D62R+Y112D/LC S32R+D33F+N35I) (Fab, V domains shown) VH: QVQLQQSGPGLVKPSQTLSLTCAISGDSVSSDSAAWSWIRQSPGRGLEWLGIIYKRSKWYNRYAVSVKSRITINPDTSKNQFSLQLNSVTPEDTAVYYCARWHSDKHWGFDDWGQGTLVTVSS VL: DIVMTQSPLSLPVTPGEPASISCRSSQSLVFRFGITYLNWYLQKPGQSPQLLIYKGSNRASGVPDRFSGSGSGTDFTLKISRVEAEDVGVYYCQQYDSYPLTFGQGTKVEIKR | 3.46e+06 |
| B2.0 (4B7 HC N32D+D62R+Y112D/LC S32R+D33F+N35I+D97T) (Fab, V domains shown) VH: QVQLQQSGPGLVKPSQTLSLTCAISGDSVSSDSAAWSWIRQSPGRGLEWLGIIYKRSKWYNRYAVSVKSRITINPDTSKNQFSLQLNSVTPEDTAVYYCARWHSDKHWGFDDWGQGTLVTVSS VL: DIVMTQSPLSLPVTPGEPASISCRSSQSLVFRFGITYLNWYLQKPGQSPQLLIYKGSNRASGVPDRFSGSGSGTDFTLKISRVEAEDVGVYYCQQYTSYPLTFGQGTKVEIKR | 7.46e+06 |

# batch size: 3; output kon per entry
1. B9.7 (4B7 HC N32D+D62R+Y112D/LC S32R+N35I) (Fab, V domains shown) VH: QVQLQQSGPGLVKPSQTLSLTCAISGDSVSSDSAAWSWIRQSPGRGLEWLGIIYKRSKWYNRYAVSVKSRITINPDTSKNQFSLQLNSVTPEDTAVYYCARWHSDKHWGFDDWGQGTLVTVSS VL: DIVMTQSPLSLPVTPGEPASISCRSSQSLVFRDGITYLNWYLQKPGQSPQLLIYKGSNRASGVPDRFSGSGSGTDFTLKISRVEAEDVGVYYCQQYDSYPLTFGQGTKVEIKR
2. B32.5 (4B7 HC D62R+Y112D/LC D33F+N35I) (Fab, V domains shown) VH: QVQLQQSGPGLVKPSQTLSLTCAISGDSVSSNSAAWSWIRQSPGRGLEWLGIIYKRSKWYNRYAVSVKSRITINPDTSKNQFSLQLNSVTPEDTAVYYCARWHSDKHWGFDDWGQGTLVTVSS VL: DIVMTQSPLSLPVTPGEPASISCRSSQSLVFSFGITYLNWYLQKPGQSPQLLIYKGSNRASGVPDRFSGSGSGTDFTLKISRVEAEDVGVYYCQQYDSYPLTFGQGTKVEIKR
3. B18.5 (4B7 HC N32D+D62Q+Y112D/LC F31I+D33F+N35I) (Fab, V domains shown) VH: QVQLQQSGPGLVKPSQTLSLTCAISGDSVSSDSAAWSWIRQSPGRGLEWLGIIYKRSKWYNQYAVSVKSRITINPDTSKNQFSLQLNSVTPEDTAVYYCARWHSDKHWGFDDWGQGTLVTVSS VL: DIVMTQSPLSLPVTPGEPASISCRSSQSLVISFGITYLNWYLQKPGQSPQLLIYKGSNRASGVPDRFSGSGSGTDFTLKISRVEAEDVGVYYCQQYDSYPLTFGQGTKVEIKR

Result ::
["2.97e+06", "2.15e+06", "1.23e+06"]
